// provenance: the supplement of paper PMC10724198

test system: Saccharomyces cerevisiae; assay: protein stability index of tFT-peptide fusion (C-terminal peptide) (PSI (0-1 scale)); higher = more stable (slower turnover); conditions: genetic background: wild type; temperature: 37 C;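 note: PSI is a weighted mean of sequencing reads over stability bins, variants kept only with over 10 reads, mCherry proximal and sfGFP distal, peptide attached via GGGS linker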
Category | rule: reported protein stability index within range, see LOW (below 0.4), MEDIUM (0.4 to below 0.5), HIGH (0.5 or more)

// known answers, use as guide
[[record]]
sequence_string = "VLFVRGHTLWLM"
class = "HIGH"

[[record]]
sequence_string = "VWCVFHVWSGRL"
class = "HIGH"

[[record]]
sequence_string = "GGLWRRLCLGVG"
class = "MEDIUM"

[[record]]
sequence_string = "GGLVVYVWGRWS"
class = "HIGH"

[[record]]
sequence_string = "VRVFSLVVCWVV"
class = "LOW"


// return the class label for `SQCVVYLSVRFS` MEDIUM

// return the class label for `LWAVGVATDWGG` HIGH

// return the class label for `FGVLGCAWVWVG` LOW
